These measurements were taken from patent US5530126A.

# Tested on: Yellow nutsedge
# Test Protocol: Pre-emergence herbicide test
# Assay type: in vivo
# Applied Conditions: Cyperus, 11.21 kg/ha, read-out: % plant inhibition (Yens)
Each entry below carries its reported inhibition at 11210 g/ha.

# Molecule, inhibition at 11210 g/ha [%]
records = [
    ("Cn1nc(-c2cc(CC(=O)NCCCl)c(Cl)cc2F)c(Cl)c1C(F)(F)F [Compound 113]", 0),
    ("COc1cc(F)c(-c2c(Cl)c(C(F)(F)F)nn2C)cc1[N+](=O)[O-] [Compound 78]", 0),
    ("Cn1nc(C(F)(F)F)c(Cl)c1-c1cc(F)ccc1F [Compound 69]", 0),
    ("Cn1nc(-c2ccc(Cl)cc2)c(Cl)c1C(F)(F)F [Compound 82]", 30),
    ("C#CCOc1cc(-c2nn(C)c(C(F)(F)F)c2Cl)c(F)cc1Cl [Compound 261]", 30),
]

----------
# System: Seedling johnsongrass
# Test Protocol: Pre-emergence herbicide test
# Format: in vivo
# Applied Conditions: Sorghum halepense, 11.21 kg/ha, read-out: % plant inhibition (Sejg)
Each entry below carries its reported inhibition at 11210 g/ha.

# Structure, inhibition at 11210 g/ha
data = [
    ("Cc1cc(-c2c(Cl)c(C(F)F)nn2C)c(F)cc1Cl", "80%"),
    ("Cn1nc(-c2cc(CC(=O)O)c(Cl)cc2F)c(Cl)c1C(F)(F)F", "80%"),
    ("Cn1nc(C(F)(F)F)c(Cl)c1-c1cc(F)c(Cl)cc1Cl", "80%"),
    ("Cn1nc(C(F)(F)F)c(Cl)c1-c1ccc(Cl)cc1F", "80%"),
    ("CNC(=O)Cc1cc(-c2nn(C)c(C(F)(F)F)c2Cl)c(F)cc1Cl", "90%"),
    ("Cn1nc(-c2cc(N(S(C)(=O)=O)S(C)(=O)=O)c(Cl)cc2Cl)c(Cl)c1C(F)(F)F", "30%"),
    ("Cn1nc(-c2cc(CC(=O)NCCCl)c(Cl)cc2F)c(Cl)c1C(F)(F)F", "30%"),
    ("C#CCOc1cc(-c2nn(C)c(C(F)(F)F)c2Cl)c(F)cc1Cl", "100%"),
    ("COc1cc(F)c(-c2c(Cl)c(C(F)(F)F)nn2C)cc1F", "40%"),
    ("Cn1nc(-c2ccc([N+](=O)[O-])cc2)c(Cl)c1C(F)(F)F", "90%"),
]

----------
# Tested on: Indian Mustard
# Test Protocol: Pre-emergence herbicide test
# Type: in vivo
# Applied Conditions: Brassica juncea, 1.12 kg/ha, read-out: % plant inhibition (Inmu)
Assay Endpoint: inhibition at 1120 g/ha

# Compound, Observed Result
measured = [
    ("Cn1nc(-c2cc(C=O)c(Cl)cc2F)c(Cl)c1C(F)(F)F", "100%"),
    ("C#CCOc1cc(-c2nn(C)c(C(F)(F)F)c2Cl)c(F)cc1Br", "100%"),
    ("COCCOCc1cc(-c2nn(C)c(C(F)(F)F)c2Cl)c(F)cc1Cl", "100%"),
    ("C#CCOCc1cc(-c2nn(C)c(C(F)(F)F)c2Cl)c(F)cc1Cl", "90%"),
    ("C#CCN1C(=O)COc2cc(F)c(-c3nn(C)c(C(F)(F)F)c3Cl)cc21", "100%"),
    ("Cn1nc(-c2cc(C3OCCO3)c(Cl)cc2F)c(Cl)c1C(F)(F)F", "100%"),
    ("CCOC(=O)CON=Cc1cc(-c2nn(C)c(C(F)(F)F)c2Cl)c(F)cc1Cl", "90%"),
    ("CCOC(=O)C(C)OC(=O)c1cc(-c2nn(C)c(C(F)(F)F)c2Cl)c(F)cc1Cl (stereo not shown)", "100%"),
    ("Cn1nc(-c2cc(S)c(Cl)cc2Cl)c(Cl)c1C(F)(F)F", "10%"),
    ("Cn1nc(-c2cc(C=NOCC(=O)O)c(Cl)cc2F)c(Cl)c1C(F)(F)F", "100%"),
]

----------
# Tested on: Yellow nutsedge
# Test Protocol: Pre-emergence herbicide test
# Type: in vivo
# Applied Conditions: Cyperus, 11.21 kg/ha, read-out: % plant inhibition (Yens)
Each entry below carries its reported inhibition at 11210 g/ha.

# Structure, inhibition at 11210 g/ha / %
records = [
    ("Cn1nc(-c2cc(S(=O)(=O)Cl)c(Cl)cc2Cl)c(Cl)c1C(F)(F)F", 10),
    ("Cn1nc(-c2cc(N(S(C)(=O)=O)S(C)(=O)=O)c(Cl)cc2Cl)c(Cl)c1C(F)(F)F", 10),
    ("CC(=O)OCc1cc(-c2nn(C)c(C(F)(F)F)c2Cl)c(F)cc1Cl", 70),
    ("Cn1nc(-c2cc(CBr)c(Cl)cc2F)c(Cl)c1C(F)(F)F", 20),
    ("Cn1nc(C(F)(F)F)c(Cl)c1-c1ccc(F)cc1F", 20),
    ("Cn1nc(-c2ccc(Cl)cc2)c(Cl)c1C(F)(F)Cl", 20),
    ("Cn1nc(C(F)(F)F)c(Cl)c1-c1cc(F)c(Cl)cc1Cl", 0),
    ("Cn1nc(C(F)(F)F)c(Br)c1-c1cc(F)ccc1F", 30),
    ("Cn1nc(C(F)(F)F)c(Cl)c1-c1ccc(Cl)cc1", 0),
    ("Cn1nc(C(F)(F)F)c(Cl)c1-c1ccc([N+](=O)[O-])cc1", 0),
    ("Cc1cc(-c2c(Cl)c(C(F)F)nn2C)c(F)cc1Cl", 10),
    ("CC(C)OC(=O)COCc1cc(-c2nn(C)c(C(F)(F)F)c2Cl)c(F)cc1Cl", 70),
]

----------
Each entry below carries its reported inhibition at 1120 g/ha.
# Tested on: Indian Mustard
# Test Protocol: Pre-emergence herbicide test
# Type: in vivo
# Applied Conditions: Brassica juncea, 1.12 kg/ha, read-out: % plant inhibition (Inmu)

# Compound, Assayed System, inhibition at 1120 g/ha (%)
measured = [
    ("CC(O)c1cc(-c2nn(C)c(C(F)(F)F)c2Cl)c(F)cc1Cl (stereo not drawn)", "Indian Mustard", 80),
    ("CCC(C)OC(=O)c1cc(-c2nn(C)c(C(F)(F)F)c2Cl)c(F)cc1Cl (stereo not drawn)", "Indian Mustard", 90),
    ("Cn1nc(-c2cc(CC#N)c(Cl)cc2F)c(Cl)c1C(F)(F)F", "Indian Mustard", 100),
    ("CCOCc1cc(-c2nn(C)c(C(F)(F)F)c2Cl)c(F)cc1Cl", "Indian Mustard", 100),
    ("Cn1nc(-c2cc(C=NOCC(N)=O)c(Cl)cc2F)c(Cl)c1C(F)(F)F", "Indian Mustard", 90),
    ("Cn1nc(-c2cc(CO)c(Cl)cc2F)c(Cl)c1C(F)(F)F", "Indian Mustard", 100),
]

----------
# Tested on: Annual bluegrass
# Test Protocol: Post-emergence herbicide test
# Format: in vivo
# Applied Conditions: 1.12 kg/ha, read-out: % plant inhibition (Anbg)
# Source text: Topsoil is placed in aluminum pans having holes in the bottom and compacted to a depth of 0.95 to 1.27 cm from the top of the pan. A predetermined number of seeds of each of several dicotyledonous and monocotyledonous annual plant species and/or vegetative propagules for the perennial plant species are placed on the soil and pressed into the soil surface. The seeds and/or vegetative propagules are covered with soil and leveled. […]
Assay Endpoint: inhibition at 1120 g/ha

# Structure, Assay Endpoint, Observed Result
rows = [
    ("Cn1nc(-c2cc(C(=O)OC3CCCCC3)c(Cl)cc2F)c(Cl)c1C(F)(F)F", "inhibition at 1120 g/ha", "100%"),
    ("Cn1nc(-c2cc(C3=NCCO3)c(Cl)cc2F)c(Cl)c1C(F)(F)F", "inhibition at 1120 g/ha", "70%"),
    ("Cn1nc(-c2cc(CO)c(Cl)cc2F)c(Cl)c1C(F)(F)F", "inhibition at 1120 g/ha", "20%"),
    ("CC(=NOCC(N)=O)c1cc(-c2nn(C)c(C(F)(F)F)c2Cl)c(F)cc1Cl", "inhibition at 1120 g/ha", "30%"),
    ("COC(=O)Cc1cc(-c2nn(C)c(C(F)(F)F)c2Cl)c(F)cc1Cl", "inhibition at 1120 g/ha", "30%"),
    ("COCCOCc1cc(-c2nn(C)c(C(F)(F)F)c2Cl)c(F)cc1Cl", "inhibition at 1120 g/ha", "90%"),
    ("COCOc1cc(-c2nn(C)c(C(F)(F)F)c2Cl)c(F)cc1Cl", "inhibition at 1120 g/ha", "100%"),
    ("Cn1nc(-c2cc(C=NOCC(=O)O)c(Cl)cc2F)c(Cl)c1C(F)(F)F", "inhibition at 1120 g/ha", "20%"),
    ("C#CCOCc1cc(-c2nn(C)c(C(F)(F)F)c2Cl)c(F)cc1Cl", "inhibition at 1120 g/ha", "40%"),
    ("COc1cc(-c2nn(C)c(C(F)(F)F)c2Cl)c(F)cc1Br", "inhibition at 1120 g/ha", "90%"),
]
